system: Plasmodium falciparum; assay: Antiplasmodial activity against chloroquine-sensitive Plasmodium falciparum 3D7 infected in erythrocytes assessed as growth inhibition at 10 uM incubated for 48 hrs by [3H]hypoxanthine incorporation assay; type: functional, organism-based
Calls of active or inactive are those of the source. The calls are words filed in the database; no cut-off is given here.
Labels: active, inactive

- molecule: "CCC(C)CCCCCCCCCCCCCCC(=O)NCCc1cc(Br)c(OCCCNC(=O)C2=NO[C@@]3(CC(Br)=C(OC)C(Br)=CO3)[C@H]2O)c(Br)c1 (stereo partly drawn)"
  label: "inactive"
- molecule: "CCCCC/C=C\\CCCCCCCCC(=O)NCCc1cc(Br)c(OCCCNC(=O)C2=NO[C@@]3(CC(Br)=C(OC)C(Br)=CO3)[C@H]2O)c(Br)c1"
  label: "inactive"
- molecule: "COC1=C(Br)C[C@]2(OC=C1Br)ON=C(C(=O)NCCCOc1c(Br)cc(C=O)cc1Br)[C@@H]2O"
  label: "inactive"
- molecule: "COC1=C(Br)C[C@]2(OC=C1Br)ON=C(C(=O)NCCCOc1c(Br)cc(CCNC(=O)CO)cc1Br)[C@@H]2O"
  label: "inactive"
- molecule: "COC1=C(Br)C[C@]2(OC=C1Br)ON=C(C(=O)NCCCOc1c(Br)cc(C3CNC(=O)O3)cc1Br)[C@@H]2O (stereo partly drawn)"
  label: "inactive"
- molecule: "CCCCCCCCCCCCCCCCCC(=O)NCC(O)c1cc(Br)c(OCCCNC(=O)C2=NO[C@@]3(CC(Br)=C(OC)C(Br)=CO3)[C@H]2O)c(Br)c1 (stereo partly drawn)"
  label: "inactive"
- molecule: "COC1=C(Br)C[C@]2(OC=C1Br)ON=C(C(=O)NCCCOc1c(Br)cc(CCNC(=O)CCCCCCCCCCCCC(C)C)cc1Br)[C@@H]2O"
  label: "inactive"
- molecule: "COC1=C(Br)C[C@]2(OC=C1Br)ON=C(C(=O)NCCCOc1c(Br)cc(C(O)CNC=C3C(=O)C=CC3=O)cc1Br)[C@@H]2O (stereo partly drawn)"
  label: "active"

Just for reference, ChEMBL document CHEMBL2203011 is where these values come from.
